# tested-on: hERG channel (Homo sapiens, UniProt Q12809)
# Sequence (Q12809 whole entry): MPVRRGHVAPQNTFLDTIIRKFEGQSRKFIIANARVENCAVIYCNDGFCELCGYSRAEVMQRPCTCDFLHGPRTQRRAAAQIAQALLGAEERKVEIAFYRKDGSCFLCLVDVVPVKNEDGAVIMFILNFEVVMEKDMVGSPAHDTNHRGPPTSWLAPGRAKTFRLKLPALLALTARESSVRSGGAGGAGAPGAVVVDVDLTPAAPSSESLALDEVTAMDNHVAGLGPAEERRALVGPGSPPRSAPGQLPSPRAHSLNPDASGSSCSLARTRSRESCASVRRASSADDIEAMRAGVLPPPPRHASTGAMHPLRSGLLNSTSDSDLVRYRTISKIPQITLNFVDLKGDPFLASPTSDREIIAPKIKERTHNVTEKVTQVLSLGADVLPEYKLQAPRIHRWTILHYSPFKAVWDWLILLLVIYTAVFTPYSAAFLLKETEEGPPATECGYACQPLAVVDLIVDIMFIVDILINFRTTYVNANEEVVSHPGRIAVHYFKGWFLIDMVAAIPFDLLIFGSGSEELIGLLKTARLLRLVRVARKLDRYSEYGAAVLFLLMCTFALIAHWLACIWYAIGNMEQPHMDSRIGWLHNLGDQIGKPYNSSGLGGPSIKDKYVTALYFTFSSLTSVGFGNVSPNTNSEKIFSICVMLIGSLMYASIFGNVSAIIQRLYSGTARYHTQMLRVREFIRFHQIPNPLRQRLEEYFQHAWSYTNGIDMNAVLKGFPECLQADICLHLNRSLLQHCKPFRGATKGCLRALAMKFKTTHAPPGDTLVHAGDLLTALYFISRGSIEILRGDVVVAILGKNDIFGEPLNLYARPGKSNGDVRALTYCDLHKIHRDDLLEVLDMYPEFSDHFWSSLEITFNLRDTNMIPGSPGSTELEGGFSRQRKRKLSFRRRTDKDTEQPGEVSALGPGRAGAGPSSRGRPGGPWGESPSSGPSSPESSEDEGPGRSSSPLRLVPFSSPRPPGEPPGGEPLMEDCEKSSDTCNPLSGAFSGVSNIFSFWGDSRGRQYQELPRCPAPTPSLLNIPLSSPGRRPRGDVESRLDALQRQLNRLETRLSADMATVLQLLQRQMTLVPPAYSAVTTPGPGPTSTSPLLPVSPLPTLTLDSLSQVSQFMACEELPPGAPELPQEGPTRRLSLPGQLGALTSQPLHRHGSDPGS
# protocol-notes: Automated patch clamp recording of hERG tail current (IonWorks)
# experimental-context: hERG tail current ratio post/pre-compound, 50 uM

compound: Cc1csc2c1sc1cc(C(=O)O)sc12 [Compound 22]
Electrophysiology (HEK-hERG): inactive
//
compound: CCOC(=O)c1cc2sc3cc(C(=O)OCC)sc3c2s1 [Compound 23]
Electrophysiology (HEK-hERG): inactive
//
compound: N#CC(=Cc1ccc2[nH]ccc2c1)C(N)=C(C#N)C#N [AG370]
Electrophysiology (HEK-hERG): inactive
//
compound: CCCCc1ccc(C2(C)OC(=C(C#N)C#N)C(C#N)=C2C)cc1 (centres unmarked) [Compound 01]
Electrophysiology (HEK-hERG): inactive
//
compound: CCN(CC)C(=O)/C(C#N)=C/c1cc(O)c(O)c([N+](=O)[O-])c1 [Entacapone]
Electrophysiology (HEK-hERG): inactive
//
compound: CCCCCCCCCCCCCc1c(C(=O)O)sc2c(Br)csc12 [Compound 17]
Electrophysiology (HEK-hERG): activator
//
compound: N#C/C(=C\c1ccc(O)c(O)c1)C(N)=S [Tyrphostin 47]
Electrophysiology (HEK-hERG): activator
//
compound: N#CC(C#N)=Cc1ccc([N+](=O)[O-])c(O)c1 [AG126]
Electrophysiology (HEK-hERG): inactive
//
compound: O=C(O)c1cc(-c2ccc(F)cc2F)ccc1O [Diflunisal]
Electrophysiology (HEK-hERG): activator
//
compound: CCCCCCCCCCCCCCCc1c(C(=O)O)sc2c(Br)csc12 [Compound 19]
Electrophysiology (HEK-hERG): activator
//
compound: CCCOc1ccccc1-c1nc2nn[nH]c2c(=O)[nH]1 [zaprinast]
Electrophysiology (HEK-hERG): inactive
//
compound: CCCCCCCCCCCc1c(C(=O)O)sc2c(Br)csc12 [Compound 16]
Electrophysiology (HEK-hERG): inactive
//
compound: CC1=C(C#N)C(=C(C#N)C#N)OC1(C)c1ccc(F)cc1F (centres unmarked) [Compound 02]
Electrophysiology (HEK-hERG): inactive
//
compound: CC1=C(C#N)C(=C(C#N)C#N)OC1(c1ccccc1)C(F)(F)F (centres unmarked) [Compound 04]
Electrophysiology (HEK-hERG): activator
//
compound: O=Cc1ccc(-c2ccc(CO)s2)s1 [Compound 28]
Electrophysiology (HEK-hERG): inactive
//
compound: CC(=O)c1c(O)c(C)c(O)c(Cc2c(O)c3c(c(C(=O)/C=C/c4ccccc4)c2O)OC(C)(C)C=C3)c1O [Mallotoxin, mallotoxin]
Electrophysiology (HEK-hERG): activator
//
compound: N#CC(C#N)=C(N)/C(C#N)=C/c1cc(O)c(O)c(O)c1 [Tyrphostin 51]
Electrophysiology (HEK-hERG): inactive
//
compound: Cc1c(C(=O)O)sc2ccsc12 [Compound 12]
Electrophysiology (HEK-hERG): inactive
//
compound: O=C(O)c1ccccc1Nc1cccc(C(F)(F)F)c1 [Flufenamic acid]
Electrophysiology (HEK-hERG): activator

###

# tested-on: hERG channel (Homo sapiens, UniProt Q12809)
# protocol-notes: Automated patch clamp recording of hERG tail current (IonWorks)
# experimental-context: hERG tail current ratio post/pre-compound, 50 uM

compound: N#C/C(=C\c1ccc(O)c(O)c1)C(N)=O
Electrophysiology (HEK-hERG): inactive
//
compound: O=C(O)c1cc(=O)c2ccccc2[nH]1
Electrophysiology (HEK-hERG): inactive
//
compound: O=Cc1ccc(-c2cccs2)s1
Electrophysiology (HEK-hERG): blocker
//
compound: O=C(O)c1cccnc1Nc1cccc(C(F)(F)F)c1
Electrophysiology (HEK-hERG): activator
//
compound: CCCCCCCCCCc1c(C(=O)O)sc2c(Br)csc12
Electrophysiology (HEK-hERG): activator
//
compound: O=C(O)c1cc2sccc2s1 [Compound 11, thieno[3,2-b]thiophene-2-carboxylic acid]
Electrophysiology (HEK-hERG): inactive
//
compound: CCCCCCc1csc2cc(C(=O)O)sc12
Electrophysiology (HEK-hERG): blocker
//
compound: O=C1OC(OC(=O)c2cccnc2Nc2cccc(C(F)(F)F)c2)c2ccccc21 (stereo not drawn) [Talniflumate]
Electrophysiology (HEK-hERG): inactive
//
compound: O=C(O)c1ccccc1Nc1ccc(CCc2ccc(Cl)c(Cl)c2)cc1
Electrophysiology (HEK-hERG): activator

###

# tested-on: GPR35 (Homo sapiens, UniProt Q9HC97)
# Construct: myc; expressed in transfected cells; host or cells: HEK293, transient co-transfection (Lipofectamine LTX)
# Sequence (Q9HC97 whole entry): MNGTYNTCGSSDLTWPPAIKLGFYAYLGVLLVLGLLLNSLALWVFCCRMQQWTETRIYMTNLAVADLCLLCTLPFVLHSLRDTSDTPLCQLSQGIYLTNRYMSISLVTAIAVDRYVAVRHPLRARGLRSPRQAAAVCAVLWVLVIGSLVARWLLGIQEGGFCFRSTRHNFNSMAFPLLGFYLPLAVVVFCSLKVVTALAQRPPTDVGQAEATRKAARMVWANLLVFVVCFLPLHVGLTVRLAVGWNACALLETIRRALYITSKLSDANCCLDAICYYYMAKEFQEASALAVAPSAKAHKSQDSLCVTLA
# protocol-notes: Ca2+ mobilization assay (Fluo-4) in HEK-GPR35-Gqo5 cells
# Format: cell-based
# experimental-context: HEK293 cells co-expressing GPR35 and Gqo5; Fluo-4; compounds 10 μM
quantity-kind: Ca2+ moblization (HEK-GPR35-Gqo5)

compound: Cc1c(Nc2ncccc2C(=O)O)cccc1C(F)(F)F
tested-on: GPR35 (Homo sapiens, UniProt Q9HC97)
observed-result: active
--
compound: Cc1c(C(=O)O)sc2c(Br)csc12
tested-on: GPR35 (Homo sapiens, UniProt Q9HC97)
observed-result: inactive
--
compound: COC(=O)c1ccc(C=Cc2ccc(N(C)CCO)cc2)s1
tested-on: GPR35 (Homo sapiens, UniProt Q9HC97)
observed-result: active
--
compound: CC1=C(C#N)C(=C(C#N)C#N)OC1(C)c1ccc(Cl)c(Cl)c1Cl (centres unmarked)
tested-on: GPR35 (Homo sapiens, UniProt Q9HC97)
observed-result: inactive
--
compound: Cc1cccc(Nc2ccccc2C(=O)O)c1C
tested-on: GPR35 (Homo sapiens, UniProt Q9HC97)
observed-result: inactive
--
compound: O=C(O)c1ccccc1Nc1cccc(C(F)(F)F)c1
tested-on: GPR35 (Homo sapiens, UniProt Q9HC97)
observed-result: active
--
compound: CCOC(=O)c1cc2sc3cc(C(=O)OCC)sc3c2s1
tested-on: GPR35 (Homo sapiens, UniProt Q9HC97)
observed-result: inactive
--
compound: OCc1ccc(-c2cccs2)s1
tested-on: GPR35 (Homo sapiens, UniProt Q9HC97)
observed-result: inactive
--
compound: CC1=C(C#N)C(=C(C#N)C#N)OC1(C)c1ccc(Cl)c(Cl)c1 (centres unmarked)
tested-on: GPR35 (Homo sapiens, UniProt Q9HC97)
observed-result: active
--
compound: CC1=C(C#N)C(=C(C#N)C#N)OC1(C)C
tested-on: GPR35 (Homo sapiens, UniProt Q9HC97)
observed-result: active
--
compound: CN(CCO)c1ccc(C=Cc2ccc(C(=O)[O-])s2)cc1.[Li+]
tested-on: GPR35 (Homo sapiens, UniProt Q9HC97)
observed-result: active
